From: paper PMC3175016

Test system: male Fischer 344 rats
assay-explanation: Kidney weight 24 h after a single i.p. dose
Type: in vivo
experimental-setup: dose 0.6 (head mg/kg; text mmol/kg), i.p. in corn oil, mean ± SE, N = 3–4
Marks after values point to notes of the source that are not given here.
Parameter: Kidney weight. Scope: all listed entries.
measured-attribute: Kidney weight

[[record]]
compound = "O=C1CSC(=O)N1c1cc(C(F)(F)F)cc(C(F)(F)F)c1 [DFMPT]"
assayed_target = "male Fischer 344 rats"
measured_attribute = "Kidney weight"
reported = "0.30 ± 0.09^g g/ 100% BW"

[[record]]
compound = "O=C1CSCN1c1cc(Cl)cc(Cl)c1 [4-DCTD, 3-(3,5-dichlorophenyl)-4-thiazolidinone]"
assayed_target = "male Fischer 344 rats"
measured_attribute = "Kidney weight"
reported = "0.41 ± 0.01^d g/ 100% BW"

[[record]]
compound = "O=C1CSC(=O)N1c1ccc(Cl)cc1 [CPTD, 3-(4-chlorophenyl)-2,4-thiazolidinedione]"
assayed_target = "male Fischer 344 rats"
measured_attribute = "Kidney weight"
reported = "0.46 ± 0.02*,^c g/ 100% BW"

[[record]]
compound = "O=C1CSC(=O)N1c1ccccc1 [PTZD, 3-phenyl-2,4-thiazolidinedione]"
assayed_target = "male Fischer 344 rats"
measured_attribute = "Kidney weight"
reported = "0.41 ± 0.01*,^e g/ 100% BW"


---

Tested on: male Fischer 344 rats
assay-explanation: Blood urea nitrogen
Type: in vivo
experimental-setup: dose 1.0 (head mg/kg; text mmol/kg), i.p. in corn oil, 24 h, mean ± SE, N = 3–4
Marks after values point to notes of the source that are not given here.
Reported Blood urea nitrogen by item:
measured-attribute: Blood urea nitrogen

[[record]]
compound = "O=C1SCCN1c1cc(Cl)cc(Cl)c1"
measured_attribute = "Blood urea nitrogen"
reported = "24.4 ± 0.7^g mg/dl"

[[record]]
compound = "O=C1CSC(=O)N1c1ccc(Cl)cc1"
measured_attribute = "Blood urea nitrogen"
reported = "34.9 ± 1.8*,^c mg/dl"

[[record]]
compound = "CC1SC(=O)N(c2cc(Cl)cc(Cl)c2)C1=O (stereo not shown)"
measured_attribute = "Blood urea nitrogen"
reported = "20.0 ± 2.2^a mg/dl"

[[record]]
compound = "Cc1cc(C)cc(N2C(=O)CSC2=O)c1"
measured_attribute = "Blood urea nitrogen"
reported = "32.8 ± 3.1*,^b mg/dl"

[[record]]
compound = "O=C1CSCN1c1cc(Cl)cc(Cl)c1"
measured_attribute = "Blood urea nitrogen"
reported = "42.5 ± 1.1*,^f mg/dl"

[[record]]
compound = "O=C1CSC(=O)N1c1ccccc1"
measured_attribute = "Blood urea nitrogen"
reported = "31.3 ± 2.4*,^d mg/dl"

[[record]]
compound = "O=C1CSC(=O)N1c1cc(C(F)(F)F)cc(C(F)(F)F)c1"
measured_attribute = "Blood urea nitrogen"
reported = "32.7 ± 1.4*,^f mg/dl"


---

Test system: male Fischer 344 rats
assay-explanation: Blood urea nitrogen
Format: in vivo
experimental-setup: dose 0.6 (head mg/kg; text mmol/kg), i.p. in corn oil, 24 h, mean ± SE, N = 3–4
Marks after values point to notes of the source that are not given here.
Below, each entry is listed with its recorded Blood urea nitrogen.
measured-attribute: Blood urea nitrogen

[[record]]
compound = "Cc1cc(C)cc(N2C(=O)CSC2=O)c1"
reported = "27.5 ± 1.4*,^b mg/dl"

[[record]]
compound = "O=C1CSCN1c1cc(Cl)cc(Cl)c1"
reported = "33.8 ± 2.4*,^e mg/dl"

[[record]]
compound = "O=C1CSC(=O)N1c1ccc(Cl)cc1"
reported = "40.4 ± 2.7*,^c mg/dl"

[[record]]
compound = "O=C1SCCN1c1cc(Cl)cc(Cl)c1"
reported = "23.9 ± 0.9^g mg/dl"

[[record]]
compound = "CC1SC(=O)N(c2cc(Cl)cc(Cl)c2)C1=O (centres unmarked)"
reported = "19.8 ± 2.8^a mg/dl"

[[record]]
compound = "O=C(O)CSC(=O)Nc1cc(Cl)cc(Cl)c1"
reported = "67.8 ± 17.9*,^c mg/dl"

[[record]]
compound = "O=C1CSC(=O)N1c1cc(C(F)(F)F)cc(C(F)(F)F)c1"
reported = "22.5 ± 0.5^e mg/dl"

[[record]]
compound = "O=C1CSC(=O)N1c1ccccc1"
reported = "28.6 ± 2.0*,^d mg/dl"

